Values from ChEMBL document CHEMBL3991601

Target or system Serine/threonine-protein kinase NLK (Homo sapiens, UniProt Q9UBE8); recorded quantity Kd. Further: in the data inactive means no Kd found up to 30 µM.
Active and inactive are the calls of the source.

Illustrative cases are given below, each with its answer.
molecule: Cc1ccc(NC(=O)c2ccc(CN3CC[C@H](N(C)C)C3)c(C(F)(F)F)c2)cc1Nc1nccc(-c2cncnc2)n1 [BAFETINIB]
endpoint.label: Kd
obs.value: > 30 µM (inactive)

molecule: C[C@@H](c1ccc2nccn2c1)n1nnc2ncc(-c3cnn(C)c3)nc21 [SAVOLITINIB]
endpoint.label: Kd
obs.value: > 30 µM (inactive)

Need Kd of C[C@@H](Nc1cc(F)cc(F)c1)c1cc(C(=O)N(C)C)cc2c(=O)cc(N3CCOCC3)oc12 [AZD-8186] , thanks.
> 30 µM (inactive)

Another molecule to look at: CNC(=O)c1ccc(-c2cnc3ncc(Cc4ccc5ncccc5c4)n3n2)cc1F [CAPMATINIB]
> 30 µM (inactive)

Next molecule up: CCS(=O)(=O)N1CC(CC#N)(n2cc(-c3ncnc4[nH]ccc34)cn2)C1 [BARICITINIB]
> 30 µM (inactive)

Similarly, OCCn1cc(-c2cnc3nnn(Cc4ccc5ncccc5c4)c3n2)cn1 [PF-04217903] ?
> 30 µM (inactive)
